Please provide measured Luminescence at the given time in minutes: 240 for the entries that follow.
tested on: Pseudomonas aeruginosa strain H1001 fliC::luxCDABE; assay: Luminescence-based assay for the non-cleaved (bound) peptides on cellulose membranes; assay type: cell-based; conditions: cellulose-bound peptide, 240 min
Ends that are not written are not given here.
# number only, unit RLU dropped from output

Reported Luminescence at the given time in minutes: 240 of RRRAIVRVVAIL [Bac023] : 79

Notebook: VVIRAAIRRVRL [Bac038] , Luminescence at the given time in minutes: 240 read as 2576

Kindly note the recorded Luminescence at the given time in minutes: 240 for VRIRARRVILVA-NH2 (C-terminus assumed) [Bac006] , which is 306

For this substance ( ILVARVIRRRVA [Bac019] ), measured Luminescence at the given time in minutes: 240 is 1570

So for ARRARIRILVVV [Bac032] , the logged Luminescence at the given time in minutes: 240 turned out to be 33

Input ARAILIRVVRRV [Bac025] . Output Luminescence at the given time in minutes: 240: 80

Luminescence at the given time in minutes: 240 reading for RVLIARVVRAIR [Bac027] : 3513

Looking up RRVIAIAVRRLV [Bac050] , I found its Luminescence at the given time in minutes: 240 recorded as 3590

Lab book: Luminescence at the given time in minutes: 240 of VARIVVRLIRAR [Bac013] noted as 66

Per the record, IILAVRAVRRVR [Bac029] has Luminescence at the given time in minutes: 240 of 942

// field: Luminescence at the given time in minutes: 240; key: AVRVRRRAILVI [Bac011] ; value = 447

The reported Luminescence at the given time in minutes: 240 of the substance VLIRIRRVARAV [Bac008] was 2890

Per the record, AAVRRRVRLVII [Bac010] has Luminescence at the given time in minutes: 240 of 56

The substance listed as IIRAALRRVRVV [Bac009] has a reported Luminescence at the given time in minutes: 240 of 3104

response.value for VLARVVARRIRI [Bac040] (field: Luminescence at the given time in minutes: 240) = 2415

For record VIVRLAARRVRI [Bac028] the listed Luminescence at the given time in minutes: 240 is 4268

Lab note: IVVRRRRAALVI [Bac030] gave Luminescence at the given time in minutes: 240 of 3679

Looking up ILVIVRRRARAV [Bac042] , I found its Luminescence at the given time in minutes: 240 recorded as 52

GET /value?item= VVRALRRIIARV [Bac048] &field=Luminescence at the given time in minutes: 240 returns 3694

----------
So I've got a bunch of substances here, and I need their Activity Class Soluble values.
tested on: Pseudomonas aeruginosa strain H1001; assay: Assay for the cleaved (free, soluble) peptides from cellulose support, luminescence killing assay; format: cell-based; parameters: key: 1: Peptides showing stronger killing than Bac2A at a 4 to 8-fold higher dilution; Peptides showing stronger killing compared to that of Bac2A at a 4-fold higher dilution; 3: Peptides similar to Bac2A; 4: Peptides similar to Bac2A at the highest concentration but demonstrating weaker killing at a 2-fold dilution; 5: Peptides giving very weak or no killing at a 2-fold dilution; 6: Peptides with weak killing activity at the highest concentration; settings: free (cleaved) peptides, killing relative to Bac2A
Ends that are not written are not given here.
Answer field: number only, no words.

Activity Class Soluble of VIALVRARVRRI [Bac049] , assay on Pseudomonas aeruginosa strain H1001, is 3

Kindly note: Pseudomonas aeruginosa strain H1001, ARRLIVRVRVIA [Bac003] , Activity Class Soluble value reported: 5

// substance ILVARVIRRRVA [Bac019] , assay Pseudomonas aeruginosa strain H1001, Activity Class Soluble value: 5

The substance ARRARIRILVVV [Bac032] on Pseudomonas aeruginosa strain H1001: Activity Class Soluble was 4

Entry RVLIAARVIRRV [Bac047] : Activity Class Soluble on Pseudomonas aeruginosa strain H1001 = 3

Test item VVIRAAIRRVRL [Bac038] ; Pseudomonas aeruginosa strain H1001; reported Activity Class Soluble was 5

Measured Activity Class Soluble for this entry RLARIVVIRVAR-NH2 [Bac2A, reference compound] on Pseudomonas aeruginosa strain H1001: 3

I looked up RVLRVVRAAIRI [Bac035] and its Activity Class Soluble for Pseudomonas aeruginosa strain H1001 was 5

Cited source for all entries: patent US20080207522A1
